Target: T1, rhNav1.7α + β1-β2-β3 (rhesus monkey)
T1 construct: also called rhNav1.7-beta1-beta2-beta3; rhesus Nav1.7α
Assay: binding FACS, CHO FlpIn cells
Can you tell me Bmax for the items I'm about to list?
Numbers only, in %.

Please report Bmax for every entry that follows.
1. F010301891 (VHH, T57V vs F0103464B09 (Kabat)) VHH: EVQLVESGGGLVQPGGSLRLSCATTSRAFIRDVFTGWYRRVPGKERELVARIYNGGNVNYADFAKGRFSISRDNAKKMVTLRMSNLKPEDTGVYYCLFSGTINTGREYRSGDYWGQGTLVTVSS
2. F010302364 (VHH) VHH: EVQLVESGGGVVQPGGSLRLSCAASHRAFIRDLFTGWYRQAPGKQRELVARIYESGNTNYADSVKGRFTISRDNAKKTVYLQMNSLRPEDTALYYCLFSGTISTGREYRSGDYWGQGTLVTVSS
3. F010301880 (VHH, G54S vs F0103464B09 (Kabat)) VHH: EVQLVESGGGLVQPGGSLRLSCATTSRAFIRDVFTGWYRRVPGKERELVARIYNSGNTNYADFAKGRFSISRDNAKKMVTLRMSNLKPEDTGVYYCLFSGTINTGREYRSGDYWGQGTLVTVSS
4. F010302358 (VHH) VHH: EVQLVESGGGVVQPGGSLRLSCAASSRQFIRDVFTGWYRQAPGKQRELVARIYNEGNTQYADSVKGRFTISRDNAKKTVYLQMNSLRPEDTALYYCLFSGTISTGREYRSGDYWGQGTLVTVSS

45
74
73
37
